Just for reference, patent US20080161289A1 is where these values come from.

Target: histamine H3 receptors (Homo sapiens, UniProt Q9Y5N1)
Construct: expressed in transfected cells; host or cells: CHO K1 cells carrying pSwitch, transfected with pGeneH3, induced with mifepristone; clone 3H3; membrane preparation
Sequence (Q9Y5N1 whole entry): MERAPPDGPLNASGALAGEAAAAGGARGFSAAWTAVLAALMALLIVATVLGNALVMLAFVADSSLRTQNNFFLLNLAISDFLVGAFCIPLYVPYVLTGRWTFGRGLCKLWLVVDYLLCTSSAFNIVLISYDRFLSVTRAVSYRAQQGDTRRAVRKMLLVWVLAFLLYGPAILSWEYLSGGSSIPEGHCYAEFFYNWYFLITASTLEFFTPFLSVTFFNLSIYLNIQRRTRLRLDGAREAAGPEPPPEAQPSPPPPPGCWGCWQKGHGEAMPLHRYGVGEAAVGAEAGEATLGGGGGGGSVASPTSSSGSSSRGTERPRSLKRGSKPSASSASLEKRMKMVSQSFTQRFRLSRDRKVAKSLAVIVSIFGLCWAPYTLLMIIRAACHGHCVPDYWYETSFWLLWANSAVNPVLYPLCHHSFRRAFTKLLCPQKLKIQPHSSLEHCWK
Assay: Histamine H3 functional antagonist assay ([35S]-GTPγS SPA on membranes from H3 cells)
Assay type: biochemical
Details: hydrochloride salts tested; H3 functional antagonist assay using membrane prepared from cultured H3 cells; averages of a number of experiments; read-out: functional pKi (fpKi) (converted)
Method: A membrane preparation containing histamine H3 receptors may be prepared in accordance with the following procedures: (i) Generation of Histamine H3 Cell Line […] 10-14 days post selection 10 nM Mifepristone (InVitrogen), was added to the culture medium to induce the expression of the receptor. […] Receptor bound antibody was detected by incubation of the cells for 60 minutes on ice with a goat anti rabbit antibody, conjugated with Alexa 488 fluorescence marker (Molecular Probes). […]
Provide the reported Ki of each item.

Asked: Which value of Ki has been reported for Cc1ccccc1C(=O)N1CCC(c2nc3c(s2)CCN(C2CCC2)CC3)CC1 in the records?
Given back: < 0.316 nM

Asked: Try the molecule Cc1ccc(C(=O)N2CCC(c3nc4c(s3)CCN(C3CCC3)CC4)CC2)cn1
Given back: < 1.26 nM

Asked: Try the molecule N#Cc1ccc(-c2nc3c(s2)CCN(C2CCC2)CC3)cc1
Given back: < 1.26 nM

Asked: Try the molecule N#Cc1ccc(-c2nc3c(s2)CCN(C2CCCC2)CC3)nc1
Given back: < 31.6 nM

Asked: Try the molecule c1nc(N2CCCCC2)ncc1-c1nc2c(s1)CCN(C1CCC1)CC2
Given back: < 31.6 nM

---

Provide the reported Ki of each item.
Target: histamine H3 receptors (Homo sapiens, UniProt Q9Y5N1)
Construct: expressed in transfected cells; host or cells: CHO K1 cells carrying pSwitch, transfected with pGeneH3, induced with mifepristone; clone 3H3; membrane preparation
Experiment: Histamine H3 functional antagonist assay ([35S]-GTPγS SPA on membranes from H3 cells)
Type: biochemical
Settings: hydrochloride salts tested; H3 functional antagonist assay using membrane prepared from cultured H3 cells; averages of a number of experiments; read-out: functional pKi (fpKi) (converted)

Asked: Which value of Ki has been reported for O=C1NCCN1c1ccc(-c2nc3c(s2)CCN(C2CCC2)CC3)cc1 in the records?
Given back: < 1.26 nM

Asked: Try the compound CNC(=O)c1ccc(-c2nc3c(s2)CCN(C2CCC2)CC3)nc1
Given back: < 31.6 nM

Asked: Try the compound N#Cc1ccc(N2CCC(c3nc4c(s3)CCN(C3CCC3)CC4)CC2)cn1
Given back: < 0.316 nM

Asked: Try the compound c1cc(N2CCOCC2)ncc1-c1nc2c(s1)CCN(C1CCC1)CC2
Given back: < 1.26 nM

Asked: Try the compound Cc1cnc(C(=O)N2CCC(c3nc4c(s3)CCN(C3CCC3)CC4)CC2)cn1
Given back: < 1.26 nM

Asked: Try the compound CN1CCN(c2ccc(-c3nc4c(s3)CCN(C3CCCCC3)CC4)cc2)C1=O
Given back: < 1.26 nM

Asked: Try the compound N#Cc1cncc(N2CCC(c3nc4c(s3)CCN(C3CCC3)CC4)C2)c1 (stereo not drawn)
Given back: < 1.26 nM

Asked: Try the compound CN(C)c1ccc(-c2nc3c(s2)CCN(C2CCC2)CC3)cc1
Given back: < 1.26 nM

Asked: Try the compound N#Cc1ccc(-c2nc3c(s2)CCN(C2CCC2)CC3)cn1
Given back: < 31.6 nM
